pIC50: −log10 of the molar value.
The following are reported pIC50 results, target or system CREB-binding protein (Homo sapiens, UniProt Q92793).
recorded_metric: pIC50

(a) CNC(=O)c1cc(Br)c[nH]1
(b) COC(=O)c1ccc2[nH]c(=O)oc2c1
[Q] Hi there! Just curious which has the higher pIC50 between a and b . Use the label to indicate which entry you chose.
[A] a
(a: 4.40, b: 3.34)

Measured values drawn from ChEMBL document CHEMBL4028826 for this set.
